tested on: P388 leukemia ip, CD2F1 mice, survival T/C; assay: NCI In Vivo Anticancer Drug Screen. Data for tumor model P388 Leukemia (intraperitoneal) in CD2F1 (CDF1) mice; settings: endpoint: median survival time; dose: 50.0 mg/kg/injection; schedule: Q01DX005 (ip); vehicle: saline with Tween-80; higher = longer survival
Toxic doses and inconclusive results are not listed.
Endpoint Name: T/C

{"columns": ["Molecule", "Endpoint Name", "Result"],
 "data": [
  ["CCOC(=O)C(N=Nc1ccc(Br)c(C)c1)C(C)=O (centres undefined)", "T/C", "107 % of control"],
  ["COc1cccc(C(=O)N/N=C(\\C#N)c2cccc(OC)c2)c1", "T/C", "97 % of control"],
  ["C=CC1(O)Cc2cc(C(C)C)c(OC)c(OC)c21 (centres undefined)", "T/C", "106 % of control"]
]}

Now take the following molecule into account.
Exam item: Requested read-out T/C, target or system P388 leukemia ip, CD2F1 mice, survival T/C, entry `O=C1C2CC3CC1CC(Cl)(C3)C2`
Marked response: 112 % of control

* * *

Tested on: P388 leukemia ip, CD2F1 mice, survival T/C
Test: NCI In Vivo Anticancer Drug Screen. Data for tumor model P388 Leukemia (intraperitoneal) in CD2F1 (CDF1) mice
Conditions: endpoint: median survival time; dose: 50.0 mg/kg/injection; schedule: Q01DX009 (ip); vehicle: saline
Protocol: The antitumor activity of compounds was measured in mice bearing transplantable tumors. Survival or tumor size were measured and the results are expressed as the measurement made in the treated group (T) divided by the measurement made in the vehicle treated control group (C). The tumor model used in this assay is P388 Leukemia (intraperitoneal) in CD2F1 (CDF1) mice
Toxic doses and inconclusive results are not listed. How the source made its calls: active means survival T/C of 150% or more; inactive means T/C below 125% in these data.
Log the outcome using a class from 1 (active), 0 (inactive)

{"columns": ["Compound", "Qualitative Label"],
 "data": [
  ["CC(=O)OC1OC(CS[As](C)C)C(OC(C)=O)C(OC(C)=O)C1OC(C)=O (configuration not stated)", 0],
  ["O=C(OC1C2CCC2C2CC21)c1ccc([N+](=O)[O-])cc1[N+](=O)[O-] (configuration not stated)", 0]
]}

Exam item: Hello, I am checking results. What call was entered for `CON(C)c1nc(N(C)C)nc(N(C)C)n1` ?
Marked response: 0

Exam item: Hello, I am checking results. What call was entered for `O=NNc1ccc([N+](=O)[O-])cn1` ?
Marked response: 1

Exam item: Hello, I am checking results. What call was entered for `O=S(=O)(c1ccc(Cl)cc1)S(=O)(=O)c1ccc(Cl)cc1` ?
Marked response: 0

Exam item: Hello, I am checking results. What call was entered for `O=C(CC(=O)C(F)(F)F)c1cccs1.O=C(CC(=O)C(F)(F)F)c1cccs1.O=C(CC(=O)C(F)(F)F)c1cccs1.[Tb]` ?
Marked response: 0

Exam item: Hello, I am checking results. What call was entered for COc1c(C(C)C)cc2c(c1OC)C13CCCC(C)(C)C1C(OC3=O)C2NC(=O)C(C)N(C)C (configuration not stated) ?
Marked response: 0

Exam item: Hello, I am checking results. What call was entered for `CN(C)CCC(=O)c1ccc(Cl)c(Cl)c1` ?
Marked response: 0

Exam item: Hello, I am checking results. What call was entered for `NS(=O)(=O)c1cccnc1Nc1cccc(Cl)c1Cl` ?
Marked response: 0
